Below, each of the molecules is paired with its reported composite Z-score value.
Experiment: probe aXIP binding to arrayed compounds – biochemical, NeuroSMM set, 635/667 nm fluorescence, primary screen (AID 1119);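 further: probe is the protein aXip251-270 applied at 1 µg/mL to compound-printed slides; binding of probe to printed compounds measured as 667 nm fluorescence plus signal to noise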
Conditions: small-molecule microarray, higher = more signal, called active from +8 up or from −8 down
Reply with just the number.

// known answers, use as guide
{"molecule": "COc1ccc([C@H]2OC[C@@H]3C[C@H](Cc4ccccc4)C(=O)N32)cc1", "composite Z-score": -0.397}
{"molecule": "CCCN1C(=O)[C@@]2(Cc3ccccc31)N=C(c1ccc(OCCCO)cc1)O[C@H]2c1ccccc1", "composite Z-score": 0.953}
{"molecule": "C=CC[C@H](OC(=O)Nc1ccc(SC)cc1)c1ccc(O)c2ccccc12", "composite Z-score": -0.285}
{"molecule": "NCCCCCNC(=O)[C@@H]1C[C@@H]2C(=O)N[C@@H](CCCCN)C(=O)N2[C@@H]1c1ccc(O)cc1", "composite Z-score": 0.562}
{"molecule": "CCC1=C2CN(Cc3ccccc3)[C@@H](C(=O)Cc3ccccc3)C2C=CCC1 (stereo not given in full)", "composite Z-score": -0.496}
{"molecule": "COc1ccc(CCNC(=O)[C@@H]2c3ccccc3C(=O)N(C3CCCCC3)[C@H]2c2ccc(CO)cc2)cc1", "composite Z-score": 0.0861}

Identify composite Z-score associated with the molecule COc1ccc([Si](C)(C)[C@H]2[C@H](CC(=O)N3Cc4ccccc4C[C@H]3CO)O[C@@]3(C(=O)N(Cc4ccc(N5CCOC5=O)cc4)c4ccccc43)[C@@H]2C)cc1
0.949

Identify composite Z-score associated with the molecule COc1ccccc1CN1C(=O)c2ccccc2[C@](Cc2ccccc2I)(C(=O)O)[C@@H]1c1ccc(CO)cc1
0.114

Identify composite Z-score associated with the molecule CCCC=C(CCC)[C@@H](NS(=O)(=O)CC12CCC(CC1=O)C2(C)C)c1ccc(C(=O)OC)cc1 (stereo not given in full)
0.234

Identify composite Z-score associated with the molecule Cc1ccc(N2C(=O)c3ccccc3[C@@H](C(=O)NCCCN(C)C)[C@@H]2c2ccc(CO)cc2)nc1
0.403

Identify composite Z-score associated with the molecule O=C1N(Cc2ccccc2)c2ccccc2C[C@]12N=C(c1ccc(OCCCO)cc1)O[C@@H]2c1ccccc1
0.109

Identify composite Z-score associated with the molecule C=CCC(OC(C)=O)[C@@H]1[C@@H](N(Cc2cccc3ccccc23)C(=O)Cc2ccc(F)cc2)c2cc(OCCCO)ccc2N1C(=O)c1ccc2ccccc2c1 (stereo not given in full)
-0.748
